# Method: Second study: 10, 25 or 50 mg per day for 10 days in healthy volunteers, pharmacokinetics on days 1 and 10
# Type: in vivo, human
# Recorded conditions: human, plasma, oral, 10 mg per day, human, 10 mg per day, Day 10; footnote: 0 to 72 hours post administration; read-out: AUC (area under the plasma concentration time curve)
Endpoint: AUC (ng·h/mL)

> print(dat)
                              smiles.string  endpoint  observed.value
1  C[C@@H](OC[C@@]1(c2ccccc2)CC[C@]2(CCC(=O)N2)CN1)c1cc(C(F)(F)F)cc(C(F)(F)F)c1       AUC            3590
